- Test description: Cytotoxicity against human HFF cells
- Assay type: toxicity, cell-based
Endpoint: pIC50
Answers are plain numbers, as −log10 of the molar value.

C[C@H]1[C@@H](CC(C[C@H]2O[C@@H]3O[C@@]4(C)CC[C@H]5[C@H](C)CC[C@@H]([C@H]2C)[C@@]35OO4)CS(=O)(=O)c2ccc(CO)cc2)O[C@@H]2O[C@@]3(C)CC[C@H]4[C@H](C)CC[C@@H]1[C@@]24OO3 (some centres not stated) | 4.24

Continue with the next molecule.
[ask] Return reported pIC50. Input molecule: C[C@H]1[C@@H](CC(C[C@H]2O[C@@H]3O[C@@]4(C)CC[C@H]5[C@H](C)CC[C@@H]([C@H]2C)[C@@]35OO4)CS(=O)(=O)c2ccc(COC(=O)N(C)C)cc2)O[C@@H]2O[C@@]3(C)CC[C@H]4[C@H](C)CC[C@@H]1[C@@]24OO3 (some centres not stated)
[reply] 5.31
